Each entry below lists one item and its recorded CD4 EC50 (nM); CD69/CD25 on human T cells, plate-coated antibody value.
Molecular target: human CD3 (human, UniProt P07766 23-207; P04234 22-171; P09693 23-182)
Sequence (P07766 23-207, chain 1 of 3): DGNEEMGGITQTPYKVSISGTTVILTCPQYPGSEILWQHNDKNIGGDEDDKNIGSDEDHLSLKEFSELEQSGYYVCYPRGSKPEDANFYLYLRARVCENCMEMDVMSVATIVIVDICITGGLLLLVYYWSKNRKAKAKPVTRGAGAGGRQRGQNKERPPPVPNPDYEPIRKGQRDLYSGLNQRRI
Sequence (P04234 22-171, chain 2 of 3): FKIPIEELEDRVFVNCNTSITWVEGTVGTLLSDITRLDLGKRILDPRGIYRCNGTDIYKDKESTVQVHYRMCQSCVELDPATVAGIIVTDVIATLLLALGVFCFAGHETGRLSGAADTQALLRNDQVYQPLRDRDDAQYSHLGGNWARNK
Sequence (P09693 23-182, chain 3 of 3): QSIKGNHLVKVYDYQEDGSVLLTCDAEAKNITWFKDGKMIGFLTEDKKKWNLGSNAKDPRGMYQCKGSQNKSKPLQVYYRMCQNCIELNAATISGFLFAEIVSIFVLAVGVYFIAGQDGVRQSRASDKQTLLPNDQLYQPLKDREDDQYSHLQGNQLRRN
Experiment: cell-based or functional assay
# number only, unit nM dropped from output

# example entries with known answers
mAb 74 (antibody, V domains shown) VH: EVQLVESGGGLVQPGRSLRLSCAASGFTFADYVMHWVRQAPGKGLEWVSGINWNNARIGYVGSVKGRFTISRDNAKNSLYLQMTSLRVEDTALYHCVREGNFDFWSAYYRGFLDLWGRGTLVTVSS VL: DIQMTQSPSSLSASVGDRVTITCRASQGIRSDLGWYQQKPGKAPKRLIYGASSLQGGVPSRFSGSGSGTEFTLTISSLQPEDFATYYCLQHNSYPYTFGQGTKLEIK :: 20.9
mAb 101 (antibody, V domains shown) VH: QGQLVESGGGVVQPGRSLRLSCAASGFTFRGFGMHWVRQAPGKGLEWVAIIYYDGKNKYYADSVKGRFTISRDNSKNMLYLQMNSLRAEDTAVYYCAKGGGYNWFDPWGQGTLVTVSS VL: DIQMTQSPSSLSASVGDRVTITCRASQSISTYLNWYQQKPGKAPKLLIYSASSLQSGVPSRFSGSGSGTDFTLTISNLQPEDFAIYYCQRSYSPPFTFGPGTKLDIR :: 12.9

As a next step, examine the binder that follows.
Query: Find the recorded CD4 EC50 (nM); CD69/CD25 on human T cells, plate-coated antibody belonging to mAb 157 (antibody, V domains shown) VH: EVQLVESGGGLVKTGGSLRLSCVASGFSFKKAWMNWVRQAPGKGLEWVGRIKRTADGGATDYAAPVKGRFTLSRDDSKNTLYLQMNSLKTEDTAVYYCTTLDSSSWYVGYYYMDVWGKGTTVTVSS VL: DIHMTQAPSSVSASVGDRVTFTCRASQDINNWLAWYQQKPGKAPKLLIYTASSLQSGVPSRFSGSGSGTDFTLTISSLQPEDFATYYCQQAHSLPITFGQGTRLGIK and report it.
Result: 6.42
